Exercise: for every item that follows, state its recorded TGI.
- Test system: SK-MEL-2 melanoma
- Test method notes: NCI tumour cell line growth inhibition, 48 h

> print(dat)
                                   molecule  recorded.metric   result
1  O=c1c2c(c3ccccc3n1-c1ccccc1)NC(=S)NC2c1ccc(Cl)cc1 (centres undefined)              TGI  32.4 µM
2  C[n+]1c2ccccc2n2c3ccccc3c(NCCc3ccccn3)c(C#N)c21              TGI  7.73 µM
3  COc1ccc(-c2nn(-c3cccc(NC(=O)Nc4ccccc4)c3)cc2-c2ccncc2)cc1Cl              TGI  7.53 µM

Here is another molecule to look at.
(Q) Supply reported TGI belonging to this molecule: Cc1ccc(C2N=C(N)NC3=C2CCOc2c3ccc3ccccc23)cc1 (centres undefined)
(A) > 100 µM

* * *

- Tested on: UACC-62 melanoma
- Test method notes: NCI tumour cell line growth inhibition, 48 h
Recorded metric: TGI (µM)
Numbers only, in µM.

> print(dat)
                                   compound  number
1   O=C1C(Nc2ccc(Br)cc2)=C(I)C(=O)c2ncccc21    2.96
2  Cc1ccc(C2N=C(N)NC3=C2CCOc2c3ccc3ccccc23)cc1 (stereo unspecified)    57.5

Here is another compound to look at.
(Q) Supply reported TGI belonging to this compound: O=C(NNc1ccc(F)cc1)C1CCC(CNS(=O)(=O)c2ccc(Cl)c(Cl)c2)CC1 (stereo unspecified)
(A) 23.4

* * *

- Test system: ACHN renal
- Test method notes: NCI tumour cell line growth inhibition, 48 h
Recorded metric: TGI

Give me TGI for each of these compounds, listed below.
1. O=C(O)CCNC(=O)c1cc(N(CCBr)CCBr)c([N+](=O)[O-])cc1[N+](=O)[O-]
2. O=[N+]([O-])c1ccc(Sc2nc(Cl)nc(NC3CCCC3)n2)cc1
3. Nc1nc2c(nnn2C2OC(CO)C(O)C2O)c(=O)[nH]1 (stereo unspecified)
4. C[N+](C)(C)/N=C/c1ccc(O)c(O)c1
5. Clc1ccc(CNc2nc(Cl)c3[nH]cnc3n2)cc1Cl
6. NNC1=N/C(=C\c2ccco2)C(=O)N1

(A)
["> 100 µM", "> 10 µM", "> 100 µM", "> 100 µM", "> 100 µM", "> 100 µM"]

* * *

- System: OVCAR-4 ovarian
- Test method notes: NCI tumour cell line growth inhibition, 48 h
Recorded metric: TGI (µM)
Numbers only, in µM.

> print(dat)
                                   compound  number
1  CC1SC2(CCC(c3ccccc3)CC2)N(NC(=O)c2[nH]c3ccc(F)cc3c2-c2ccccc2)C1=O (stereo unspecified)    18.3
2  C/C(=N\NC(=S)N1CCN(C2CCCCCC2)CC1)c1ccccn1    3.12
3     CCC/C(Cl)=N\OC(=O)Nc1cccc(C(F)(F)F)c1    38.5

Here is another compound to look at.
(Q) Supply reported TGI belonging to this compound: `NCCCCCCCCCCCn1c2c(c3ccccc3c1=O)C(=O)c1ccccc1-2`
(A) 8.63

* * *

Exercise: for every item that follows, state its recorded TGI.
- Tested on: SK-MEL-5 melanoma
- Test method notes: NCI tumour cell line growth inhibition, 48 h

> print(dat)
                               query.smiles   result
1  Fc1ccc(-c2nn3c(-c4cc(C(F)(F)F)cc(C(F)(F)F)c4)nnc3s2)cc1  > 50 µM

Give me TGI for each of these compounds, listed below.
1. N.N.O=P([O-])([O-])CN(CCN(CP(=O)([O-])[O-])CP(=O)([O-])[O-])CP(=O)([O-])[O-].[Pt+2]
2. Nn1c(CCCCCCCCc2nnc(COc3ccccc3)n2N)nnc1COc1ccccc1

(A)
1. > 100 µM
2. > 100 µM

(Q) Supply reported TGI belonging to this compound: `COC(=O)N/N=C(\C(=O)Nc1cccc([N+](=O)[O-])c1)c1nc2ccc([N+](=O)[O-])cc2[nH]c1=O`
(A) > 100 µM
